Test system: NCI-H2170
Experiment: relative viability (nuclei count vs DMSO), 5 days (fraction); higher = more cells survive
Details: first compound 2.53 µM
Recorded relative viability, one value per entry.
readout: relative viability

1) COc1nc(C)cnc1NS(=O)(=O)c1cccnc1-c1ccc(-c2nnco2)cc1 [Zibotentan] + COc1cc2c(Oc3ccc(NC(=O)C4(C(=O)Nc5ccc(F)cc5)CC4)cc3F)ccnc2cc1OCCCN1CCOCC1 [Foretinib] (partner 0.25 µM)    0.969
2) COc1nc(C)cnc1NS(=O)(=O)c1cccnc1-c1ccc(-c2nnco2)cc1 [Zibotentan] + Nc1ncn([C@H]2C[C@H](O)[C@@H](CO)O2)c(=O)n1 [Decitabine] (partner 2 µM)    0.463

----------
Test system: NCI-H1755
Assay: relative viability (nuclei count vs DMSO), 5 days (fraction); higher = more cells survive
Details: first compound 0.6325 µM
relative viability listing for selected compounds.
readout: relative viability

1. COCC1(CO)C(=O)C2CCN1CC2 (stereo not given) [PRIMA-1MET] + Nc1nc2[nH]cc(CCc3ccc(C(=O)N[C@@H](CCC(=O)O)C(=O)O)cc3)c2c(=O)[nH]1 [Pemetrexed] (partner 0.2 µM)    0.388
2. COCC1(CO)C(=O)C2CCN1CC2 (stereo not given) [PRIMA-1MET] + COc1cccc2cc(-c3nc([C@H]4CC[C@H](C(=O)O)CC4)n4ncnc(N)c34)[nH]c12 [OSI-027] (partner 0.5 µM)    0.668
3. COCC1(CO)C(=O)C2CCN1CC2 (stereo not given) [PRIMA-1MET] + CC(C)C[C@H](NC(=O)[C@H](Cc1ccccc1)NC(=O)c1cnccn1)B(O)O [Bortezomib] (partner 0.002 µM)    0.892
4. COCC1(CO)C(=O)C2CCN1CC2 (stereo not given) [PRIMA-1MET] + N=C(N)NC(=N)NCCc1ccccc1 [Phenformin] (partner 250 µM)    0.659
5. COCC1(CO)C(=O)C2CCN1CC2 (stereo not given) [PRIMA-1MET] + Cc1cc(Nc2cc(N3CCN(C)CC3)nc(Sc3ccc(NC(=O)C4CC4)cc3)n2)n[nH]1 [Tozasertib] (partner 0.1 µM)    0.596

----------
Quick list: relative viability per entry.
Test system: LK-2
Experiment: relative viability (nuclei count vs DMSO), 5 days (fraction); higher = more cells survive
Settings: first compound 0.01 µM
readout: relative viability

1) O=c1cc(N2CCOCC2)oc2c(-c3cccc4c3sc3ccccc34)cccc12 + Cc1nc(NC(=O)N2CCC[C@H]2C(N)=O)sc1-c1ccnc(C(C)(C)C(F)(F)F)c1 [Alpelisib] (partner 2 µM)    1.1
2) CCN(CC)CCCCNc1ncc2cc(-c3cc(OC)cc(OC)c3)c(NC(=O)NC(C)(C)C)nc2n1 + N=C(N)NC(=N)NCCc1ccccc1 [Phenformin] (partner 250 µM)    0.638
3) CCN(CC)CCCCNc1ncc2cc(-c3cc(OC)cc(OC)c3)c(NC(=O)NC(C)(C)C)nc2n1 + CC(=O)Nc1cccc(-n2c(=O)n(C3CC3)c(=O)c3c(Nc4ccc(I)cc4F)n(C)c(=O)c(C)c32)c1 [Trametinib] (partner 0.02 µM)    0.856
4) O=c1cc(N2CCOCC2)oc2c(-c3cccc4c3sc3ccccc34)cccc12 + NC(=O)Nc1cc(-c2cccc(F)c2)sc1C(=O)N[C@H]1CCCNC1 [AZD7762] (partner 0.2 µM)    0.468
5) O=c1cc(N2CCOCC2)oc2c(-c3cccc4c3sc3ccccc34)cccc12 + COc1cc2c(Oc3ccc(NC(=O)C4(C(=O)Nc5ccc(F)cc5)CC4)cc3F)ccnc2cc1OCCCN1CCOCC1 [Foretinib] (partner 0.25 µM)    1.17
6) CCN(CC)CCCCNc1ncc2cc(-c3cc(OC)cc(OC)c3)c(NC(=O)NC(C)(C)C)nc2n1 + O=C(CCCCCCC(=O)Nc1ccccc1)NO [Vorinostat] (partner 1 µM)    0.266
7) CCN(CC)CCCCNc1ncc2cc(-c3cc(OC)cc(OC)c3)c(NC(=O)NC(C)(C)C)nc2n1 + O=C(c1cc(Cc2n[nH]c(=O)c3ccccc23)ccc1F)N1CCN(C(=O)C2CC2)CC1 [Olaparib] (partner 8 µM)    0.634
8) O=c1cc(N2CCOCC2)oc2c(-c3cccc4c3sc3ccccc34)cccc12 + COc1cccc2cc(-c3nc([C@H]4CC[C@H](C(=O)O)CC4)n4ncnc(N)c34)[nH]c12 [OSI-027] (partner 0.5 µM)    0.24
9) O=c1cc(N2CCOCC2)oc2c(-c3cccc4c3sc3ccccc34)cccc12 + Nc1nc2[nH]cc(CCc3ccc(C(=O)N[C@@H](CCC(=O)O)C(=O)O)cc3)c2c(=O)[nH]1 [Pemetrexed] (partner 0.2 µM)    0.278
10) CCN(CC)CCCCNc1ncc2cc(-c3cc(OC)cc(OC)c3)c(NC(=O)NC(C)(C)C)nc2n1 + CS(=O)(=O)N1CCN(Cc2cc3nc(-c4cccc5[nH]ncc45)nc(N4CCOCC4)c3s2)CC1 [Pictilisib] (partner 1 µM)    0.624
11) CCN(CC)CCCCNc1ncc2cc(-c3cc(OC)cc(OC)c3)c(NC(=O)NC(C)(C)C)nc2n1 + CCNC(=O)c1noc(-c2cc(C(C)C)c(O)cc2O)c1-c1ccc(CN2CCOCC2)cc1 [Luminespib] (partner 0.01 µM)    0.153
12) O=c1cc(N2CCOCC2)oc2c(-c3cccc4c3sc3ccccc34)cccc12 + O=C(c1cc(Cc2n[nH]c(=O)c3ccccc23)ccc1F)N1CCN(C(=O)C2CC2)CC1 [Olaparib] (partner 8 µM)    0.802
13) O=c1cc(N2CCOCC2)oc2c(-c3cccc4c3sc3ccccc34)cccc12 + CS(=O)(=O)CCNCc1ccc(-c2ccc3ncnc(Nc4ccc(OCc5cccc(F)c5)c(Cl)c4)c3c2)o1 [Lapatinib] (partner 2 µM)    0.832
14) O=c1cc(N2CCOCC2)oc2c(-c3cccc4c3sc3ccccc34)cccc12 + CC(=O)Nc1cccc(-n2c(=O)n(C3CC3)c(=O)c3c(Nc4ccc(I)cc4F)n(C)c(=O)c(C)c32)c1 [Trametinib] (partner 0.02 µM)    0.808
15) O=c1cc(N2CCOCC2)oc2c(-c3cccc4c3sc3ccccc34)cccc12 + Cc1nc(Nc2ncc(C(=O)Nc3c(C)cccc3Cl)s2)cc(N2CCN(CCO)CC2)n1 [Dasatinib] (partner 0.075 µM)    0.329
16) CCN(CC)CCCCNc1ncc2cc(-c3cc(OC)cc(OC)c3)c(NC(=O)NC(C)(C)C)nc2n1 + C[C@@H](Oc1cc(-c2cnn(C3CCNCC3)c2)cnc1N)c1c(Cl)ccc(F)c1Cl [Crizotinib] (partner 1 µM)    0.235
